# ASSAYED_TARGET: T1, EsCas13d, nuclease-dead (Eubacterium siraeum, UniProt B0MS50, R295A;H300A;R849A;H854A)
# T1 sequence: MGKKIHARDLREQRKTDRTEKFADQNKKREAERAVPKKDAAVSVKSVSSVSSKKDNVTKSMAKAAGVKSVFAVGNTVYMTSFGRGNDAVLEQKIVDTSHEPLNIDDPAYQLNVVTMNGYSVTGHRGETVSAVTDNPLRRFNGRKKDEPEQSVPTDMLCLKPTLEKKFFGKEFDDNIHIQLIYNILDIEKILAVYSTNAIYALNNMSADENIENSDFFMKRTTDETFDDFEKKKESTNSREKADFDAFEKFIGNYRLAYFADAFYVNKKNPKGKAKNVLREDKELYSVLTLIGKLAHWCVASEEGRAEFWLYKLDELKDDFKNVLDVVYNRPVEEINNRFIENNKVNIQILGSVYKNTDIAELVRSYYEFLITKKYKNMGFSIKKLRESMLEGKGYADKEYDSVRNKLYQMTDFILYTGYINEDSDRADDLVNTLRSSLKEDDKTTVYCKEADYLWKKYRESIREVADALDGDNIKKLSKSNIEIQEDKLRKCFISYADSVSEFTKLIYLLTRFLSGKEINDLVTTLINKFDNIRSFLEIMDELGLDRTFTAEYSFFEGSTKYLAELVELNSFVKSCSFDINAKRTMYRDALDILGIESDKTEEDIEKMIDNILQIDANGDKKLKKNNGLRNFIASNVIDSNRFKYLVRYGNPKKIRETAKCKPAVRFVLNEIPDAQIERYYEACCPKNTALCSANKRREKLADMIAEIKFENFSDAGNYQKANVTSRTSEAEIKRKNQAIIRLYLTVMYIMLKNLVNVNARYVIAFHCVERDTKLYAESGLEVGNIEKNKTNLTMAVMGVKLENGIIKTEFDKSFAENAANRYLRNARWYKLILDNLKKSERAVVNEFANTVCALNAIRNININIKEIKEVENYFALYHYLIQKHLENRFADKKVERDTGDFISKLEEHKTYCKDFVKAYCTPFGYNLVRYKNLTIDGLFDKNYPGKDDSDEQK
# ASSAY_NAME: crRNA (strand 1, pre-loaded); Mg2+; 40 mM Tris-HCl pH 7.5, 150 mM NaCl, 6 mM MgCl2, 1 mM DTT, 0.1% Tween-20, 0.2 mg/ml BSA; 25 C; 10 min per concentration, then washed
# ASSAY_CONTEXT: tags: His6-TwinStrep-SUMO cleaved; N-terminal SNAP kept (SNAP-Surface 488); label: 3' end held by stalled T7 RNA polymerase
In plain terms, low Kd, meaning strictly below 7 nM, gives rule met, and everything else gives rule not met.

BINDER	LABEL
target 3 U2G,U7A (mixed) RNA 1: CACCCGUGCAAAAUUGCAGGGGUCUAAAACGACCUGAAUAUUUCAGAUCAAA RNA 2: GGGAAUGGAUCCACAUCUACGAAUUCGUUUUUGAUCUGAAAUAUACAGGGCUGCAGAUCGGAAGAGCACACGU	rule met
target 2 MT 5'PFS CUG 3'PFS AGA (mixed) RNA 1: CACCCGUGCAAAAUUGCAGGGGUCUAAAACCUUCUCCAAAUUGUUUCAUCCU RNA 2: GGGAAUGGAUCCACAUCUACGAAUUCCUGAGGAUGAAACAAUUUGGAGAAGAGAAGAUCGGAAGAGCACACGU	rule met
target 1 MT 5'PFS GAA 3'PFS UUG (mixed) RNA 1: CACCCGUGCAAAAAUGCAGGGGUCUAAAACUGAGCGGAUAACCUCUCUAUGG RNA 2: GGGAAUGGAUCCACAUCUACGAAUUCGAACCAUAGAGAGGUUAUCCGCUCAUUGAGAUCGGAAGAGCACACGU	rule not met
target 1 MT 5'PFS UGU 3'PFS CGA (mixed) RNA 1: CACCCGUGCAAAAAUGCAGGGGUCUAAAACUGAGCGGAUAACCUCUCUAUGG RNA 2: GGGAAUGGAUCCACAUCUACGAAUUCUGUCCAUAGAGAGGUUAUCCGCUCACGAAGAUCGGAAGAGCACACGU	rule not met
target 1 MT 5'PFS CAA 3'PFS ACG (mixed) RNA 1: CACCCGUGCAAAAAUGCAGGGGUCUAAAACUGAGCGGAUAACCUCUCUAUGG RNA 2: GGGAAUGGAUCCACAUCUACGAAUUCCAACCAUAGAGAGGUUAUCCGCUCAACGAGAUCGGAAGAGCACACGU	rule not met
target 1 insA 3' of 13,insA 3' of 3 (mixed) RNA 1: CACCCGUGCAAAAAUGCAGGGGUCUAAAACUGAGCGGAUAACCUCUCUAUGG RNA 2: GGGAAUGGAUCCACAUCUACGAAUUCGUACCAUAGAGAGAGUUAUCCGCUACACCGAGAUCGGAAGAGCACACGU	rule met
target 2 MT 5'PFS AAU 3'PFS UAU (mixed) RNA 1: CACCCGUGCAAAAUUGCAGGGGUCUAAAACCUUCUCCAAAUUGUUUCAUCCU RNA 2: GGGAAUGGAUCCACAUCUACGAAUUCAAUAGGAUGAAACAAUUUGGAGAAGUAUAGAUCGGAAGAGCACACGU	rule met
target 2 MT 5'PFS GAG 3'PFS UAA (mixed) RNA 1: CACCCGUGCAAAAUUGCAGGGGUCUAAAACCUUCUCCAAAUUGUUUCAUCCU RNA 2: GGGAAUGGAUCCACAUCUACGAAUUCGAGAGGAUGAAACAAUUUGGAGAAGUAAAGAUCGGAAGAGCACACGU	rule met
target 1 U3G,A14G (mixed) RNA 1: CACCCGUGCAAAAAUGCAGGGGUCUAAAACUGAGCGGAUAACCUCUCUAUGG RNA 2: GGGAAUGGAUCCACAUCUACGAAUUCGUACCAUAGAGGGGUUAUCCGCGCACCGAGAUCGGAAGAGCACACGU	rule not met
target 1 C6U,A16G (mixed) RNA 1: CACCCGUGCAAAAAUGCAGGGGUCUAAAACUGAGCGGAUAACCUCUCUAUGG RNA 2: GGGAAUGGAUCCACAUCUACGAAUUCGUACCAUAGGGAGGUUAUCUGCUCACCGAGAUCGGAAGAGCACACGU	rule not met

## Task hey, is Kd for target 1 insU 3' of 18,insA 3' of 5 (mixed) RNA 1: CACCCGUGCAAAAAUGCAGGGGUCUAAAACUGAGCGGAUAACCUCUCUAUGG RNA 2: GGGAAUGGAUCCACAUCUACGAAUUCGUACCAUAUGAGAGGUUAUCCGACUCACCGAGAUCGGAAGAGCACACGU lower than 7 nM or not?
## Result rule not met

## Task Does the reported Kd of target 1 insU 3' of 12,insG 3' of 3 (mixed) RNA 1: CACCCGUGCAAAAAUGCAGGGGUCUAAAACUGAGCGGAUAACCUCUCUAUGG RNA 2: GGGAAUGGAUCCACAUCUACGAAUUCGUACCAUAGAGAGGUUUAUCCGCUGCACCGAGAUCGGAAGAGCACACGU stay below 7 nM?
## Result rule met

## Task Does this binder meet the criterion Kd < 7 nM? target 1 insA 3' of 15,insU 3' of 2 (mixed) RNA 1: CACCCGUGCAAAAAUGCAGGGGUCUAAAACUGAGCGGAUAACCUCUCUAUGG RNA 2: GGGAAUGGAUCCACAUCUACGAAUUCGUACCAUAGAGAAGGUUAUCCGCUCUACCGAGAUCGGAAGAGCACACGU
## Result rule met
